Target: T1, Human HARS (human, UniProt P12081 1-509, limits assumed)
T1 construct: also called human HRS; human histidyl-tRNA synthetase
T1 sequence: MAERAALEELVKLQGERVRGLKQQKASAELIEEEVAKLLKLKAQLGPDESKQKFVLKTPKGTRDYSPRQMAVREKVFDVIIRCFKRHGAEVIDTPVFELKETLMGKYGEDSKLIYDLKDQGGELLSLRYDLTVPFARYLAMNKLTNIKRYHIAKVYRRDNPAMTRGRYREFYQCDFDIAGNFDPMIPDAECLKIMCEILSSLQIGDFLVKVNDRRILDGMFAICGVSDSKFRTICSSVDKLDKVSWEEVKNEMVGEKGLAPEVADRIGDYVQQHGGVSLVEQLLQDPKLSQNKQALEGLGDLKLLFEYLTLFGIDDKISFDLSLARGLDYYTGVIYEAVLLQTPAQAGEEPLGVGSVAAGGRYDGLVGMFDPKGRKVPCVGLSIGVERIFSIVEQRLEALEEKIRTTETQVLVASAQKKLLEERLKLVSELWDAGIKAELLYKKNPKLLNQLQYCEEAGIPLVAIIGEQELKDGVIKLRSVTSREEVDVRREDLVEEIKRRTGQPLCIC
Assay: SPR (ProteOn); HRS protein immobilized, antibody as analyte
Can you tell me pKd for the items I'm about to list?
One number for each entry, as −log10 of the molar value.

{"binder": "AB04-121 (antibody, V domains shown, Human; IgG1m(zf) kappa) VH: QVQLVESGGGLVKPGGSLRLSCAASGFTFSDYYMTWIRQAPGKGLEWVSYISGSNAYTDYADSVKGRFTISRDNAKNSLYLQMNSLRDEDTAVYFCARYVYQVVAIGDYWGQGTLVTVSS VL: DIQMTQSPSSVSASVGDRVTITCRASQGISSWLAWYQQKPGRAPKLLIFAASSLQSGVPSRFSGSGSGTHFTLTISSLQPEDFATYYCQQAKSFPYTFGQGTKLEIK", "pKd": 9.05}

Then this binder:
Quick one: pKd of KL31-523 (antibody, V domains shown, Humanized; IgG1m(zf) kappa) VH: QVQLVQSGAEVKKPGASVKVSCKASGYTFTDYCIGWIRQAPGQGLEWMGDICPGDAYTNDNEKFKDRATMTADTSTSTAYMELSSLRSEDTAVYYCARGEEQVGLRNAMDYWGQGTSVTVSS VL: DIVMTQSPDSLAVSLGERATINCQSQSVSTSTYNYMHWYQQKPGQPPKLLIKYASNLESGVPDRFSGSGSGTDFTLTISSLQAEDVATYYCQHSWEIPWTFGGGTKLEIK ?
7.49
